- procedure-details: Pharmacokinetics assay in rats after intragastrical administration
- Format: in vivo, SD rats
- recorded-conditions: Sprague-Dawley, rat, plasma, po; 30 mg/kg, intragastric, male rats; read-out: Area under curve AUC
- Protocol: Male SD rats were used as test animals. The drug concentration in plasma at different time points was determined by LC/MS/MS method after intragastrical administration of the compounds of Examples 2, 17, 34, 37, 38, 39 and 43 to rats. The pharmacokinetic behavior of the compounds of the present invention was studied and evaluated in rats. […]
measured-endpoint: AUC

Below, 4 compounds whose answers are already recorded.
COCc1nnc(N2CC(c3cccc4cc(F)ccc34)C2)n1-c1ccc(OC)nc1 ... 8580 ng·h/mL
COc1ccc(-n2c(COC(F)F)nnc2N2CC(c3cccc4cc(F)ccc34)C2)cn1 ... 5630 ng·h/mL
COCc1nnc(N2CC(n3cc(C)c4cc(F)ccc43)C2)n1-c1ccc(OC)nc1 ... 11200 ng·h/mL
COc1ccc(-n2c(COC(F)F)nnc2N2CC(N3CCOc4cc(F)ccc43)C2)cn1 ... 8180 ng·h/mL

Sample COc1ccc(-n2c(N3CC(N4CCCc5cc(F)ccc54)C3)nnc2C(F)(F)F)cn1 — what was its AUC?
3830 ng·h/mL

Request: COc1ccc(-n2c(N3CC(N4CCOc5cc(F)ccc54)C3)nnc2C(F)(F)F)cn1
5560 ng·h/mL

Repeat for the following compound: COc1ccc(-n2c(COC(F)F)nnc2N2CC(n3cc(C)c4cc(F)ccc43)C2)cn1
5330 ng·h/mL
